- System: NCI-H23 lung
- ASSAY NOTES: NCI tumour cell line growth inhibition, 48 h
Provide the reported TGI of each item.

Give recorded TGI. c1cncc(C(Nc2cccc3cccnc23)Nc2cccc3cccnc23)c1
> 100 µM

Give recorded TGI. CCOC(=O)[C@@H](C)C[C@H](Cc1ccccc1)NC(=O)c1csc([C@@H](C[C@H](C(C)C)N(C)C(=O)[C@H](CCC(C)C)NC(=O)[C@H]2CCCCN2C)OC(C)=O)n1
> 33.3 µM

Give recorded TGI. Cc1cc2c(cc1Cl)Sc1nnc(C)n1S2(=O)=O
30.1 µM

Give recorded TGI. CC(=O)Oc1cccc2c1C(=O)C(Br)(Br)CCC2
18.7 µM

Give recorded TGI. Cc1nn2c(/C=C3/C(=O)Nc4ccc(Cl)cc43)c(-c3ccccc3)nc2s1
> 100 µM

Give recorded TGI. COC(=O)[C@H]1ON2O[C@@H](O[C@H]3CCCC[C@@H]3C(C)(C)c3ccccc3)C[C@@H]3CC[C@H]1[C@@]32C
> 100 µM

Give recorded TGI. COc1ccc(NC(C)=O)c(C(=O)CCNC(C)=O)c1
> 100 µM

Give recorded TGI. CCN(CC)C(=S)N/N=C(\C)c1ccccc1O
> 100 µM

Give recorded TGI. Cc1cc2nc3c(C(O)CO)nn(-c4ccccc4)c3nc2cc1C (stereo unspecified)
54.7 µM

Give recorded TGI. CCCCC(=O)[O-].N.N.N.N.N.[Co+3].[O-][Cl+3]([O-])([O-])[O-]
> 100 µM

Give recorded TGI. COc1ccc(C(=O)c2cc(OC)c(OC)c(OC)c2)cc1O
> 100 µM

* * *

- System: MDA-MB-231 breast
- ASSAY NOTES: NCI tumour cell line growth inhibition, 48 h
PROPERTY MEASURED: TGI

Give recorded TGI. O=[N+]([O-])C(=C/C1CCCCC1)/C(=C\C1CCCCC1)[N+](=O)[O-]
8.98 µM

Give recorded TGI. CN(/N=N/c1nc(OCc2ccccc2)c2[nH]cnc2n1)C(=O)N(C)/N=N/c1nc(OCc2ccccc2)c2[nH]cnc2n1
> 100 µM

Give recorded TGI. Cl.Fc1c[c-]c(-c2ccccn2)c(F)c1.[Pt].c1ccc([PH+](CC[PH+](c2ccccc2)c2ccccc2)c2ccccc2)cc1
0.496 µM

Give recorded TGI. N#Cc1nc(Cc2ccccc2)oc1N
> 100 µM

Give recorded TGI. O=S(=O)(O)Nc1ccc(-c2nc3ccccc3s2)cc1Cl
> 100 µM

Give recorded TGI. C#CC[C@H](c1nc2cc(Cl)ccc2c(=O)n1Nc1ccccc1)N(CCCN)C(=O)c1cccc(Cl)c1F
0.601 µM

Give recorded TGI. CCOC(=O)c1cc2cc(CSc3ccccc3)ccc2oc1=O
> 100 µM

Give recorded TGI. CO/N=C1/C(n2[nH]c(=O)n(-c3ccccc3)c2=O)C2C=CC1n1c(=O)n(-c3ccccc3)c(=O)n12 (stereo not given)
> 100 µM

Give recorded TGI. Cc1nn2c(/C=C3/C(=O)Nc4ccc(Cl)cc43)c(-c3ccccc3)nc2s1
8.41 µM

Give recorded TGI. COc1ccc(C(=O)/C=C/c2cc(C(=O)c3cc(OC)c(OC)c(OC)c3)ccc2OC)cc1
> 100 µM

Give recorded TGI. O=C(O)c1ccc(NS(=O)(=O)c2cccc3cccnc23)cc1
> 100 µM

Give recorded TGI. COc1ccccc1/C=C1/Sc2scc(CC(=O)Nc3ccccc3)[n+]2C1=O
70.8 µM

Give recorded TGI. COc1cccc(/C=C/C(=O)c2cc3c(N)c(C(=O)Nc4cccc(Cl)c4C)sc3nc2C)c1
2.68 µM

Give recorded TGI. CCc1ccc(CCC(=O)Nc2ncc(Cc3ccccc3)s2)o1
22.2 µM

Give recorded TGI. COc1cc(-c2cc(-c3nc4ccccc4[nH]3)[nH]n2)cc(OC)c1OC
15.8 µM

Give recorded TGI. Cc1cc2c(cc1Cl)Sc1nnc(C)n1S2(=O)=O
31.4 µM

Give recorded TGI. Cc1ccc(NC2=C(Sc3ccc(Cl)cc3)C(=O)N(Cc3ccccc3)C2=O)cc1Cl
14.7 µM

Give recorded TGI. Cc1ccc(NC(=S)NNC(=O)c2cc(-c3ccccc3)nc3ccccc23)cc1C
57.7 µM

Give recorded TGI. Cc1nn2c(/C=C3/C(=O)Nc4ccccc43)c(-c3ccc(Cl)cc3)nc2s1
21.3 µM

Give recorded TGI. COc1ccc(NC(C)=O)c(C(=O)CCNC(C)=O)c1
> 100 µM

* * *

- System: EKVX NSCLC
- ASSAY NOTES: NCI tumour cell line growth inhibition, 48 h
Provide the reported TGI of each item.

# lookup: EKVX NSCLC TGI, key = O=C(Nc1nccs1)c1cc(C2=CC=CC([N+](=O)[O-])C=C2)nc(=S)[nH]1 (stereo unspecified)
> 100 µM

# lookup: EKVX NSCLC TGI, key = CCCN(CCC)C(=O)Cc1c2n(c3ccccc13)Cc1ccccc1-2
> 100 µM

# lookup: EKVX NSCLC TGI, key = COc1cccc2c1C(=O)c1ccc3cc(CO)cc(O)c3c1C2=O
4.89 µM

# lookup: EKVX NSCLC TGI, key = COC(=O)[C@H]1ON2O[C@@H](O[C@H]3CCCC[C@@H]3C(C)(C)c3ccccc3)C[C@@H]3CC[C@H]1[C@@]32C
> 100 µM

# lookup: EKVX NSCLC TGI, key = O=S(=O)(NC(c1ccccc1)(c1cc2ccccc2[nH]1)c1cc2ccccc2n1S(=O)(=O)c1ccccc1)c1ccccc1 (stereo unspecified)
> 100 µM

# lookup: EKVX NSCLC TGI, key = Cc1ccnc2c1c(=O)c1ccccc1n2C
> 100 µM

# lookup: EKVX NSCLC TGI, key = CCc1oc2ccccc2c1C(=O)c1cc(Br)c(O)c(Br)c1
95.2 µM

# lookup: EKVX NSCLC TGI, key = CCN(CC)C(=S)N/N=C(\C)c1ccccc1O
> 100 µM

# lookup: EKVX NSCLC TGI, key = Cc1nc(Nc2ccc(F)c(Cl)c2)sc1C(=O)O
5.76 µM

# lookup: EKVX NSCLC TGI, key = CC1=NN(C(=O)CC(=O)Nc2cccc(Cl)c2)C(=O)C1N=Nc1ccc(S(=O)(=O)c2ccc(N=NC3C(=O)N(C(=O)CC(=O)Nc4cccc(Cl)c4)N=C3C)cc2)cc1 (stereo unspecified)
> 100 µM

# lookup: EKVX NSCLC TGI, key = Cc1cc2nc3c(C(O)CO)nn(-c4ccccc4)c3nc2cc1C (stereo unspecified)
63.4 µM

# lookup: EKVX NSCLC TGI, key = COc1cccc(NC(=O)N/C(=C/c2ccc(N(CCC#N)CCC#N)cc2)NC(=O)c2cc([N+](=O)[O-])ccc2Cl)c1
> 100 µM

# lookup: EKVX NSCLC TGI, key = COc1cc(/C=C2\CCc3cc(OC)c(OC)cc3C2=O)cc(OC)c1
> 100 µM

# lookup: EKVX NSCLC TGI, key = COc1ccc(/C=C2\CNC/C(=C\c3ccc(OC)cc3)C2=O)cc1
> 100 µM

# lookup: EKVX NSCLC TGI, key = N#Cc1nsnc1-c1nc(-c2nsnc2C#N)nc(-c2nsnc2C#N)n1
> 100 µM

# lookup: EKVX NSCLC TGI, key = O=C(CN=C(CN(c1ccccc1)c1ccccc1)Oc1c([N+](=O)[O-])cc([N+](=O)[O-])cc1[N+](=O)[O-])N1CCNCC1
> 100 µM

# lookup: EKVX NSCLC TGI, key = CC[O-].CC[O-].O=Nc1ccc2cc([O-])ccc2c1.O=Nc1ccc2cc([O-])ccc2c1.[Ti+4]
11.8 µM

# lookup: EKVX NSCLC TGI, key = CCOC(=O)NNC1(SC)NC(=O)c2c(cc(Cl)oc2=O)O1 (stereo unspecified)
20.4 µM

# lookup: EKVX NSCLC TGI, key = C=C1C(C[C@@H]2O[C@H]3C[C@H]4O[C@@]5(C[C@@H]6O[C@]7(C[C@H](C)[C@@H]8O[C@@H]9CC(C(O)CO)O[C@@H]9C[C@@H]8O7)C[C@H](C)[C@@H]6O5)C[C@H]4O[C@H]3[C@H](C)[C@H]2O)O[C@@H](CC[C@@H]2O[C@@H](CC[C@@]34CC5O[C@H]6C(O[C@H]7CC[C@H](CC(=O)OC)O[C@@H]7[C@@H]6O3)[C@H]5O4)CC2=C)C[C@H]1C (stereo partly specified)
> 1 µM

# lookup: EKVX NSCLC TGI, key = CCCCCC(/C=N/NC(N)=S)C(O)(C(F)(F)F)C(F)(F)F (stereo unspecified)
> 10 µM

# lookup: EKVX NSCLC TGI, key = C=CC1(CBr)CCC(C(C)(C)Br)O1 (stereo unspecified)
32.1 µM

# lookup: EKVX NSCLC TGI, key = CCOC(=O)C1(Cc2ccccc2)CCN(C(=O)c2ccccc2)C2C1C2(Cl)Cl (stereo unspecified)
71.7 µM

# lookup: EKVX NSCLC TGI, key = CCOC(=O)NC(=O)c1cn(CCCOC(=O)CCCCCCCCC(=O)OCCCn2cc(C(=O)NC(=O)OCC)c(=O)[nH]c2=O)c(=O)[nH]c1=O
> 100 µM

# lookup: EKVX NSCLC TGI, key = O=C(Nc1ccc2oc(=O)c(C(=O)O)cc2c1)Oc1ccccc1
> 100 µM

# lookup: EKVX NSCLC TGI, key = O=Cc1[nH]c2ccccc2c1Br
> 100 µM

# lookup: EKVX NSCLC TGI, key = CCOC(=O)CC[C@@H](NC(=O)c1ccc(NCc2ccc3nc(OC)c(OC)nc3c2)cc1)C(=O)OCC
> 100 µM
